molecular target: T1, human IL-4Rα (hIL-4Rα) monomeric protein (human, UniProt P24394 26-232, limits assumed); experiment: barcoded-antigen count on source cell (scRNA-seq)
T1 construct: also called hIL-4Rα antigen; barcoded hIL-4Rα
This section presents binders with their documented REGN560.L15_ab_raw values.
Please give a number only; it is taken to be in counts.

Some binders with known REGN560.L15_ab_raw results, for comparison:
| binder | property_measured | unit_spec | assay_result |
| --- | --- | --- | --- |
| Table 1 Line # 46 antibody (SP_Plasma_cell) (antibody, human IgG4, V domains shown, Cloned with human IgG4/human Igk constants for Kd; barcode counts are of the source cell's own IgG) VH: EVQLEASGGDLVQPGRSLRLSCAASGFIFDDFGMHWVRQAPGKGLEWVSGISWNGGHIGYADSVKGRFTISRDNAKNSLYLQMNSLRAEDTALYYCAKEHSSSWYGFFDFWGRGTLVTVSS VL: DIQMTQSPSSLSASVGDRVTITCRASQGLSNSVAWYQQKPGQIPRLLISAAASLQSGVPSRFSGSGSGTDFTLTISRLQPEDVATYYCQNYNSAPRTFGQGTNVEIK | REGN560.L15_ab_raw | counts | 1520 |
| Table 1 Line # 19 antibody (BM_Plasma_cell) (antibody, human IgG4, V domains shown, Cloned with human IgG4/human Igk constants for Kd; barcode counts are of the source cell's own IgG) VH: EVQLVESGGGLVQPGRSLRLSCAASGFTFDDFAMHWVRQEPGKGLEWVSGISWNGGNIGYADSVKGRFTISRDNAKNSLYLQMNSLRAEDTAFYYCAKDVSSAWYGYFDYWGQGTLVTVSS VL: DIQMTQSPSTLSASVGDRVTITCRASQSVSSWLAWYQQKPGKAPKLLIYKASSLESGVPLRFSGSGSGTEFTLTISSLQPDDFATYYCQVYNSDSRTFGQGTKVEIK | REGN560.L15_ab_raw | counts | 2060 |

Now consider the entry below.
-- ask Please look up its REGN560.L15_ab_raw: Table 1 Line # 24 antibody (SP_B_cell) (antibody, human IgG4, V domains shown, Cloned with human IgG4/human Igk constants for Kd; barcode counts are of the source cell's own IgG) VH: EVQLVESGGDLVQPGTSLRLSCAASGFTFDDYAMHWVRQTPGQGLEWVSGINWNSGTIGYADSVKGRFTISRDNAKNSLFLQMNSLRAEDSAFYYCTKDIGGSYYASDFWGQGTLVTVSS VL: DIQMTQSPSSLSASVGDRVTITCRASQRISTDLNWYQQKSGKAPNLLIYGASSLQSGVPSRFSGSGSGTDFILTISTLQPEDFATYYCQQSYSTPFTFGPGTKVDIK
-- reply 10800
